Give Ki for every item shown.
Biological target: ADC-217 (Acinetobacter baumannii, UniProt Q6DRA1, V286E, form not given)
Assay: Competition kinetics with nitrocefin (Ki), ADC-217
Details: 3 min pre-incubation, Cheng-Prusoff corrected
One number for each entry, in nM.

>>> print(df.to_string())
                               smiles_entry  number
0  CC(C)(O/N=C(\C(=O)N[C@@H]1C(=O)N2C(C(=O)[O-])=C(C[n+]3ccccc3)CS[C@H]12)c1csc(N)n1)C(=O)O     260

Consider the additional molecule presented here.
Provide the documented Ki with ADC-217 (Acinetobacter baumannii, UniProt Q6DRA1, V286E, form not given) as the system for "CC(C)(O/N=C(\C(=O)N[C@@H]1C(=O)N2C(C(=O)[O-])=C(C[N+]3(CCNC(=O)c4ccc(O)c(O)c4Cl)CCCC3)CS[C@H]12)c1csc(N)n1)C(=O)O"
210

====

Target: UniProt A7Y407
Quantity Name: Ki (µM)
Answers are plain numbers, in µM.

In [3]: df
Out[3]:
                               smiles_entry  number
0  CC(C)(O/N=C(\C(=O)N[C@@H]1C(=O)N2C(C(=O)[O-])=C(C[N+]3(CCNC(=O)c4ccc(O)c(O)c4Cl)CCCC3)CS[C@H]12)c1csc(N)n1)C(=O)O    19.3

Consider the additional molecule presented here.
Requested read-out: Ki. Entry: "CC(C)(O/N=C(\C(=O)N[C@@H]1C(=O)N2C(C(=O)[O-])=C(C[n+]3ccccc3)CS[C@H]12)c1csc(N)n1)C(=O)O"
28.4

====

Biological target: ADC-30 (Acinetobacter baumannii, UniProt A7XM81)
Quantity Name: Ki (µM)
One number for each entry, in µM.

>>> df
                               smiles_entry  quantity_name  unit_descriptor  number
0  CC(C)(O/N=C(\C(=O)N[C@@H]1C(=O)N2C(C(=O)[O-])=C(C[N+]3(CCNC(=O)c4ccc(O)c(O)c4Cl)CCCC3)CS[C@H]12)c1csc(N)n1)C(=O)O             Ki               µM    62.7

Consider the additional molecule presented here.
Requested read-out: Ki. Entry: "CC(C)(O/N=C(\C(=O)N[C@@H]1C(=O)N2C(C(=O)[O-])=C(C[n+]3ccccc3)CS[C@H]12)c1csc(N)n1)C(=O)O"
3.23

====

The reader will find Ki measurements below, all made with ADC-7 (Acinetobacter baumannii).
Give bare numbers, in µM.

>>> df
                               smiles_entry                      system_name  number
0  CC(C)(O/N=C(\C(=O)N[C@@H]1C(=O)N2C(C(=O)[O-])=C(C[N+]3(CCNC(=O)c4ccc(O)c(O)c4Cl)CCCC3)CS[C@H]12)c1csc(N)n1)C(=O)O  ADC-7 (Acinetobacter baumannii)      75

Consider the additional molecule presented here.
Requested read-out: Ki. Entry: "CC(C)(O/N=C(\C(=O)N[C@@H]1C(=O)N2C(C(=O)[O-])=C(C[n+]3ccccc3)CS[C@H]12)c1csc(N)n1)C(=O)O"
2.1

====

Target: ADC-172 (Acinetobacter baumannii, UniProt A7Y407, N321K)
Experiment: Competition kinetics with nitrocefin (Ki), ADC-172
Settings: 3 min pre-incubation, Cheng-Prusoff corrected
Give Ki for every item shown.
Give bare numbers, in µM.

                               smiles_entry  quantity_name  unit_descriptor  number
0  CC(C)(O/N=C(\C(=O)N[C@@H]1C(=O)N2C(C(=O)[O-])=C(C[n+]3ccccc3)CS[C@H]12)c1csc(N)n1)C(=O)O             Ki               µM    12.7

Provide the documented Ki with ADC-172 (Acinetobacter baumannii, UniProt A7Y407, N321K) as the system for "CC(C)(O/N=C(\C(=O)N[C@@H]1C(=O)N2C(C(=O)[O-])=C(C[N+]3(CCNC(=O)c4ccc(O)c(O)c4Cl)CCCC3)CS[C@H]12)c1csc(N)n1)C(=O)O"
3.26
